- test.system: Macrophage colony-stimulating factor 1 receptor (Homo sapiens);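 also: mean inhibition of FMS, from the GSK PKIS screening set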
- condition: at 1 µM
measured.attribute: inhibition (%)
Answers are plain numbers, in %.

>  <compound.structure.string>
CCS(=O)(=O)c1ccc(OC)c(Nc2nccc(N(C)c3ccc4c(C)n[nH]c4c3)n2)c1

>  <scale.unit>
%

>  <inhibition>
32.2

$$$$

Okay, here is my list. What is inhibition for each of these?
1. C[C@@H](Oc1cc(-n2cnc3ccc(OC[C@@H](O)CO)cc32)sc1C(N)=O)c1ccccc1Cl
2. N#Cc1c(NC(=O)c2ccccc2F)sc2c1CCCC2
3. [O-][S+]1CCN(Cc2ccc(-c3ccc4ncnc(Nc5ccc(OCc6ccccc6)c(Cl)c5)c4c3)o2)CC1

1. 9.24
2. -1.66
3. 0.13
